# Experimental System: KRas G12D/Q61H double mutant (Homo sapiens (Human), UniProt P01116, G12D/Q61H)
# Sequence (P01116-2 other isoform, or with tags, fused parts or gaps G12D/Q61H): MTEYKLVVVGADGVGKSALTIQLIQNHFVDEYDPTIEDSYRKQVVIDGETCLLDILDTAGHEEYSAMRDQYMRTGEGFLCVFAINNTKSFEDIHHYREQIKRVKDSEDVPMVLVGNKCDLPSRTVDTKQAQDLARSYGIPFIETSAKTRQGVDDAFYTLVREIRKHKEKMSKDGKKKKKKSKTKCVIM
# Protocol Description: Ras GTP binding domain inhibition assay (labeled GTP)
# Test Context: at 20 μM; read-out: KRas G12D Q61H % Inh.
# Procedure: Buffer-I: • 50 mM Tris, pH 7.5 • 150 mM NaCl (optional) • 1 mM MgCl2 • 1 mM DTT. • KRas G12D mutant protein was expressed as a His-tagged protein. […] Then 22 μl of Cy3-GTP or Cy5-GTP was added to each well. The labeled GTP was incubated for 45 min. at room temperature. • Following GTP incubation, wells were washed 3× in Buffer-I, and 200 μl of Buffer-I were added to each well. • Following washes, the amount of bound labeled-GTP was measured with an Eppendorf AF2200 plate reader. […]
Experimental Readout: inhibition at 20 µM

Use the examples below as a reference point.
COc1cccc(CC2CN(C(=O)c3csc4c(O)nc(-c5ccccn5)nc34)CCN2)c1 (centres unmarked) [drawing 3702] :: 51 to 75%
CC(C)COc1ccc(-c2csc3c(O)nc(-c4ccccn4)nc23)cn1 [drawing 3749] :: 51 to 75%
N#Cc1ccc(N2CCN(C(=O)c3csc4c(O)nc(-c5ccccn5)nc34)CC2)cc1 [drawing 3645] :: 0%
O=C(CCn1ccnc1)Nc1nc(-c2ccccn2)nc2sccc12 [drawing 3761] :: 51 to 75%
O=C(c1csc2c(O)nc(-c3ccccn3)nc12)N1CCNC(c2cn[nH]c2)C1 (centres unmarked) [drawing 3730] :: 51 to 75%

## Task Requested read-out: inhibition at 20 µM. Entry: O=C(c1csc2c(O)nc(-c3ccccn3)nc12)N1CCN(c2cccc(F)c2)CC1 [drawing 3642]
## Result 25 to 50%

## Task Also, O=C(c1csc2c(O)nc(-c3ccccn3)nc12)N1CCOC(Cc2ccccc2)C1 (centres unmarked) [drawing 3660] please.
## Result 25 to 50%

## Task Also, N#Cc1ccc(COCC(=O)Nc2ccnc(-c3ccccn3)n2)cc1 [drawing 3685] please.
## Result 0%

---

# Experimental System: KRas Q61H mutant (Homo sapiens (Human), UniProt P01116, Q61H)
# Sequence (P01116-2 other isoform, or with tags, fused parts or gaps Q61H): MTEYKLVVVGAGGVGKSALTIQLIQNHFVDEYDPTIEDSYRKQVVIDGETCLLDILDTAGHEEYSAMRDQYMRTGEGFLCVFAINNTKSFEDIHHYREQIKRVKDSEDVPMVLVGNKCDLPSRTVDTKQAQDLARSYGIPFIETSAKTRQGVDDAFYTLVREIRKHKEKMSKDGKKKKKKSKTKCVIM
# Protocol Description: Ras GTP binding domain inhibition assay (labeled GTP)
# Test Context: 20 μM compound; read-out: % Inhibition at 20 μM KRas Q61H
Experimental Readout: inhibition at 20 µM

Oc1nc(-c2ccccn2)nc2c(-c3ccc(C4CCC4)cc3)csc12 [drawing 2865] :: 51 to 75%
Nc1nc(-c2ccccn2)nc2c(Br)csc12 [drawing 2892] :: 25 to 50%

## Task Requested read-out: inhibition at 20 µM. Entry: COCCCCNC(=O)c1csc2nc(-c3ccccn3)nc(N3CCS(=O)(=O)CC3)c12 [drawing 2826]
## Result 1 to 25%

## Task Also, O=C(c1csc2c(O)nc(-c3ccccn3)nc12)N1CCN(c2ccc(F)cc2F)CC1 [drawing 2760] please.
## Result 25 to 50%

---

# Experimental System: KRas G12D/Q61H double mutant (Homo sapiens (Human), UniProt P01116, G12D/Q61H)
# Protocol Description: Ras GTP binding domain inhibition assay (labeled GTP)
# Test Context: 20 μM compound; KRas G12D/Q61H double mutant; read-out: % Inhibition at 20 μM of K-Ras mutant and wild-type protein, KRas G12D Q61H
Experimental Readout: inhibition at 20 µM

Use the examples below as a reference point.
Oc1nc(-c2ccccn2)nc2c(C3CCCC3)csc12 [drawing 3495] :: 51 to 75%
CC(C)(C)NS(=O)(=O)c1ccccc1CNC(=O)CCC1CCCCC1 :: 25 to 50%
O=C(c1ccoc1)N1CCC(Nc2cc(Cl)ccc2OCC2CCC2)CC1 :: 25 to 50%
CCSC1CCCCC1NCc1nc(-c2ccc(OC(F)F)c(OC)c2)no1 (stereo not shown) :: 25 to 50%
COc1ccc(C)cc1-n1ccc(C(=O)N2CCCC2C(O)C(F)(F)F)n1 (stereo not shown) :: 1 to 25%
CCOC(=O)c1ccc2c(c1)nc(C1CCN(S(=O)(=O)c3cccs3)CC1)n2CC :: 25 to 50%
COc1ccc(OC)c(CCC(=O)N2CCN(c3ncc(C(F)(F)F)cc3Cl)CC2)c1 :: 25 to 50%
Oc1nc(-c2ccccn2)nc2c(-c3cncc(C(F)F)c3)csc12 [drawing 3507] :: 1 to 25%

We next turn to a different compound, shown below.
## Task Requested read-out: inhibition at 20 µM. Entry: CCOc1cc(CN(C(=O)CCc2nc(-c3ccsc3)no2)C2CC2)ccc1OC(F)(F)F
## Result 25 to 50%
